Experiment: HUVEC growth inhibition – cell-based, human, primary screen (AID 575);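 further: 100% = median of untreated cell wells with 0.1% DMSO on each plate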
Conditions: HUVEC proliferation, CellTiter-Glo luminescence, 72 h; at 10 µM; stronger effect = lower value
The source made the active and inactive calls.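 How the source made its calls: active means viability at or below 30% in both replicate assays; inconclusive means viability at or below 30% in just one of the two assays; inactive means the rest.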
quantity_measured: viability

IN: Look at this compound and give its reported viability. Cc1ccc(S(=O)(=O)N2CCN(C(=O)CN3C(=O)NC4(CCOc5ccccc54)C3=O)CC2)cc1 (stereo not drawn)
OUT: 102% (inactive)

IN: Follow-up item: O=C(Nc1ccccn1)NC(C(F)(F)F)C(F)(F)F
OUT: 100% (inactive)

IN: What do you have for O=C(NCc1cccnc1)c1ccc2c(c1)OCO2 ?
OUT: 105% (inactive)

IN: Then Cc1nc2ccccn2c1/C(O)=C1\C(=O)C(=O)N(CCN2CCOCC2)C1c1cccs1 (stereo not drawn) ?
OUT: 108% (inactive)

IN: # iterate: Cc1ccc(-c2noc(-c3ccccc3C(=O)NCC3CCCO3)n2)cc1 (stereo not drawn)
OUT: 100% (inactive)

IN: Same lookup for CC(=O)Nc1ccc(Cl)c(C(N)=O)c1 , please.
OUT: 97.1% (inactive)

IN: // next record COc1cccc(OCc2nc3ccccc3[nH]2)c1
OUT: 101% (inactive)

IN: Please answer likewise for CN(C)c1ccc(CNC2CC(C)(C)NC(C)(C)C2)cc1
OUT: 94.2% (inactive)

IN: Param item: COC(=O)C1CCN(C(=O)NC(C)(C)C)CC1
OUT: 104% (inactive)

IN: Query O=C(CSc1ncc(-c2ccc(F)cc2)[nH]1)N1CCCCC1 next
OUT: 92.6% (inactive)

IN: # repeat for O=c1[nH]c(SCc2ccccc2Cl)nc2c1CCCC2
OUT: 65.4% (inactive)

IN: Try this compound too: COc1ccc(S(=O)(=O)N(C)CC(=O)N2CCCCC2)cc1Cl
OUT: 96.6% (inactive)

IN: Please give the result for COc1cc(C(=O)Nc2cccc(-c3nc4cc(C)ccc4o3)c2)cc(OC)c1OC too.
OUT: 66.8% (inactive)

IN: Also need O=C(CCN1C(=O)c2ccccc2C1=O)OCN1C(=O)c2ccccc2C1=O , thanks.
OUT: 97.7% (inactive)

IN: Note, next up: CC1(C)CNC(=O)c2sc(N3CCOCC3)nc2C1
OUT: 67.9% (inactive)

IN: Field entry: Cn1c(=O)cc(OCC(=O)NCCCN2CCN(c3cccc(Cl)c3)CC2)c2ccccc21
OUT: 48.7% (inactive)

IN: Quick one: Cc1ccc2cc(C#N)c(NCCCNC(=O)C3CCCO3)nc2c1 (stereo not drawn)
OUT: 104% (inactive)

IN: Also, Cc1ccc(C(=O)CC2(O)C(=O)N(CN3CCOCC3)c3ccccc32)cc1 (stereo not drawn) please.
OUT: 85.9% (inactive)

IN: # repeat for Fc1ccccc1C(c1nnnn1Cc1ccc2c(c1)OCO2)N1CCN(Cc2ccccc2)CC1 (stereo not drawn)
OUT: 69.6% (inactive)

IN: // repeat for O=C(CCS(=O)(=O)c1cccc2nonc12)Nc1cccc2c1CCCC2 and report
OUT: 103% (inactive)

IN: Same question for Cc1cc2nc(C3CCN(CC4COc5ccccc5O4)CC3)[nH]c2cc1C (stereo not drawn) please.
OUT: 3.41% (active)

IN: Item: Clc1ccc(SCCn2ccnc2)cc1
OUT: 94.3% (inactive)

IN: Also need CCCCNC(=O)c1c(C)cc(=O)oc1C , thanks.
OUT: 98.6% (inactive)
